Assay: Cytotoxicity against mouse BV2 cells assessed as cell viability at 20 uM by MTT assay
Assay type: cell-based, BV-2
Details: read-out: Activity
Reported property: viability at 20 µM (%)
Reply numerically in %, unit not repeated.

Please review the entries below; each comes with its answer.
Compound	Reported property	Recorded number
COc1cc(C[C@@H]2CO[C@H](c3ccc(O)c(OC)c3)[C@]2(O)CO)ccc1O	viability at 20 µM	128
COc1cc([C@@H]2OC[C@@H]3[C@H]2CO[C@H]3c2ccc(O)c(OC)c2)ccc1O [(+)-PINORESINOL]	viability at 20 µM	148
COc1cc([C@H]2OC[C@H]3[C@@H]2CO[C@@H]3c2cc(OC)c(O)c(OC)c2)ccc1O	viability at 20 µM	127

# ---- query compound ----
Ask: Look up viability at 20 µM: COc1cc(C[C@H]2CO[C@H](c3ccc(O)c(OC)c3)[C@@]2(O)CO)ccc1O
Reply: 151

* * *

Experiment: Anti-neuroinflammatory activity in LPS-activated mouse BV2 cells assessed as inhibition of NO production after 24 hrs by Griess assay
Type: functional, cell-based
Conditions: BV-2, 24 h
Reported property: pIC50
Scale: pIC50 equals -log10([C]), with [C] in mol/L.

Compound	pIC50
COc1cc(C[C@H]2CO[C@H](c3ccc(O)c(OC)c3)[C@@]2(O)CO)ccc1O	3.67
COc1cc(C[C@H]2CO[C@H](c3ccc(O)c(OC)c3)[C@H]2CO)ccc1O	4.14
COc1cc([C@@H]2Oc3c(OC)cc(CCCO)cc3[C@H]2CO)ccc1O [DIHYDRODEHYDRODICONIFERYL ALCOHOL]	4.40
COc1cc(C(O)[C@H]2CO[C@H](c3ccc(O)c(OC)c3)[C@H]2CO)ccc1O (stereo partly specified)	3.89
COc1cc(/C=C/C(=O)OCCCc2cc(OC)c3c(c2)[C@@H](CO)[C@H](c2cc(OC)c(O[C@H](CO)[C@H](O)c4ccc(O)c(OC)c4)c(OC)c2)O3)ccc1O	5.15

Ask: Look up pIC50: COc1cc(/C=C\C(=O)OCCCc2cc(OC)c3c(c2)[C@@H](CO)[C@H](c2cc(OC)c(O[C@H](CO)[C@H](O)c4ccc(O)c(OC)c4)c(OC)c2)O3)ccc1O
Reply: 4.83

* * *

The reader will find reported viability at 20 µM values listed item by item below.
Assay: Cytotoxicity against mouse BV2 cells assessed as cell viability at 20 uM by MTT assay
Format: cell-based, BV-2
Conditions: read-out: Activity
Reply numerically in %, unit not repeated.

Molecule	Reported property	Recorded number
COc1cc([C@@H]2Oc3c(OC)cc(CCCO)cc3[C@H]2CO)ccc1O [DIHYDRODEHYDRODICONIFERYL ALCOHOL]	viability at 20 µM	129

Ask: Look up viability at 20 µM: COc1cc(C[C@H]2CO[C@H](c3ccc(O)c(OC)c3)[C@H]2CO)ccc1O [LARICIRESINOL]
Reply: 147

Ask: Likewise for COc1cc(/C=C\C(=O)OCCCc2cc(OC)c3c(c2)[C@@H](CO)[C@H](c2cc(OC)c(O[C@H](CO)[C@H](O)c4ccc(O)c(OC)c4)c(OC)c2)O3)ccc1O ?
Reply: 138

Ask: Likewise for CNC(=N)NCCC[C@H](N)C(=O)O [TILARGININE] ?
Reply: 102

* * *

Test: Cytotoxicity in rat C6 cells assessed as cell viability at 20 uM after 24 hrs by MTT assay
Type: cell-based
Conditions: read-out: Activity
The reader will find reported viability at 24 h, 20 µM values listed item by item below.
Reply numerically in %, unit not repeated.

Molecule	viability at 24 h, 20 µM [%]
COc1cc([C@@H]2OC[C@@H]3[C@H]2CO[C@H]3c2ccc(O)c(OC)c2)ccc1O [(+)-PINORESINOL]	105

Ask: Look up viability at 24 h, 20 µM: COc1cc(C[C@H]2CO[C@H](c3ccc(O)c(OC)c3)[C@@]2(O)CO)ccc1O
Reply: 103

* * *

System: XF498
Assay: Cytotoxicity against human XF498 cells by SRB assay
Assay type: functional, cell-based
Reported property: IC50

Please review the entries below; each comes with its answer.
Compound	Tested system	Reported property	Result
COc1cc(C(O)[C@H]2CO[C@H](c3ccc(O)c(OC)c3)[C@H]2CO)ccc1O (some centres undefined)	XF498	IC50	> 30 µM
COc1cc(/C=C\C(=O)OCCCc2cc(OC)c3c(c2)[C@@H](CO)[C@H](c2cc(OC)c(O[C@H](CO)[C@H](O)c4ccc(O)c(OC)c4)c(OC)c2)O3)ccc1O	XF498	IC50	19.6 µM
COc1cc(C[C@H]2CO[C@H](c3ccc(O)c(OC)c3)[C@H]2CO)ccc1O [LARICIRESINOL]	XF498	IC50	> 30 µM

Ask: Look up IC50: COc1cc([C@@H]2OC[C@@H]3[C@H]2CO[C@H]3c2ccc(O)c(OC)c2)ccc1O [(+)-PINORESINOL]
Reply: > 30 µM

* * *

Assay: Cytotoxicity against mouse BV2 cells assessed as cell viability at 20 uM by MTT assay
Assay type: cell-based, BV-2
Conditions: read-out: Activity
The reader will find reported viability at 20 µM values listed item by item below.
State the value with its unit after it.

Compound	viability at 20 µM
COc1cc(/C=C/C(=O)OCCCc2cc(OC)c3c(c2)[C@@H](CO)[C@H](c2cc(OC)c(O[C@@H](CO)[C@H](O)c4ccc(O)c(OC)c4)c(OC)c2)O3)ccc1O	157%

Ask: Look up viability at 20 µM: COc1cc(/C=C/C(=O)OCCCc2cc(OC)c3c(c2)[C@@H](CO)[C@H](c2cc(OC)c(O[C@H](CO)[C@H](O)c4ccc(O)c(OC)c4)c(OC)c2)O3)ccc1O
Reply: 146%

Ask: Likewise for COc1cc(C(O)[C@H]2CO[C@H](c3ccc(O)c(OC)c3)[C@H]2CO)ccc1O (stereo partly drawn) ?
Reply: 114%

* * *

The reader will find reported pIC50 values listed item by item below.
System: XF498
Assay: Cytotoxicity against human XF498 cells by SRB assay
Format: functional, cell-based
pIC50: −log10 of the molar value.

Please review the entries below; each comes with its answer.
Molecule	pIC50
COc1cc([C@@H]2Oc3c(OC)cc(CCCO)cc3[C@H]2CO)ccc1O [DIHYDRODEHYDRODICONIFERYL ALCOHOL]	< 4.52
COc1cc(/C=C/C(=O)OCCCc2cc(OC)c3c(c2)[C@@H](CO)[C@H](c2cc(OC)c(O[C@H](CO)[C@H](O)c4ccc(O)c(OC)c4)c(OC)c2)O3)ccc1O	4.74
COc1cc(/C=C/C(=O)OCCCc2cc(OC)c3c(c2)[C@@H](CO)[C@H](c2cc(OC)c(O[C@@H](CO)[C@H](O)c4ccc(O)c(OC)c4)c(OC)c2)O3)ccc1O	4.74
COc1cc(C[C@@H]2CO[C@H](c3ccc(O)c(OC)c3)[C@]2(O)CO)ccc1O	< 4.52
COc1cc([C@H]2OC[C@H]3[C@@H]2CO[C@@H]3c2cc(OC)c(O)c(OC)c2)ccc1O	< 4.52

# ---- query molecule ----
Ask: Look up pIC50: COc1cc(C[C@H]2CO[C@H](c3ccc(O)c(OC)c3)[C@@]2(O)CO)ccc1O
Reply: < 4.52

* * *

The reader will find reported viability at 24 h, 20 µM values listed item by item below.
Assay: Cytotoxicity in rat C6 cells assessed as cell viability at 20 uM after 24 hrs by MTT assay
Type: cell-based
Settings: read-out: Activity
State the value with its unit after it.

Please review the entries below; each comes with its answer.
Molecule	Reported property	Result
COc1cc(/C=C\C(=O)OCCCc2cc(OC)c3c(c2)[C@@H](CO)[C@H](c2cc(OC)c(O[C@H](CO)[C@H](O)c4ccc(O)c(OC)c4)c(OC)c2)O3)ccc1O	viability at 24 h, 20 µM	97%
COc1cc([C@@H]2Oc3c(OC)cc(CCCO)cc3[C@H]2CO)ccc1O [DIHYDRODEHYDRODICONIFERYL ALCOHOL]	viability at 24 h, 20 µM	105%
COc1cc(/C=C/C(=O)OCCCc2cc(OC)c3c(c2)[C@@H](CO)[C@H](c2cc(OC)c(O[C@H](CO)[C@H](O)c4ccc(O)c(OC)c4)c(OC)c2)O3)ccc1O	viability at 24 h, 20 µM	82.7%
COc1cc(C(O)[C@H]2CO[C@H](c3ccc(O)c(OC)c3)[C@H]2CO)ccc1O (stereo partly specified)	viability at 24 h, 20 µM	104%
COc1cc(/C=C/C(=O)OCCCc2cc(OC)c3c(c2)[C@@H](CO)[C@H](c2cc(OC)c(O[C@@H](CO)[C@H](O)c4ccc(O)c(OC)c4)c(OC)c2)O3)ccc1O	viability at 24 h, 20 µM	92.3%

# ---- query molecule ----
Ask: Look up viability at 24 h, 20 µM: COc1cc(C[C@H]2CO[C@H](c3ccc(O)c(OC)c3)[C@H]2CO)ccc1O
Reply: 101%
